What MRT was measured for each of the following?
- experiment.notes: in vivo
- Format: in vivo, Sprague–Dawley rats
- condition.label: male, Sprague-Dawley, rat, in vivo; SD rats, single oral D7 4 mL/kg, plasma
Answers are plain numbers, in h.

[
  {
    "compound.structure": "O=c1ccc2cc3ccoc3cc2o1",
    "MRT / h": 6.71
  },
  {
    "compound.structure": "O=c1ccc2ccc3occc3c2o1",
    "MRT / h": 7.13
  },
  {
    "compound.structure": "COc1c2occc2cc2ccc(=O)oc12",
    "MRT / h": 4.06
  },
  {
    "compound.structure": "COc1c2ccoc2cc2oc(=O)ccc12",
    "MRT / h": 5.65
  }
]

Here's the next entry for you.
Supply reported MRT belonging to this compound: CC(C)=CCc1cc2c(cc1O)oc(=O)c1c3ccc(O)cc3oc21
10.3

====

- experiment.notes: in vivo
- Assay type: in vivo, Sprague–Dawley rats
- condition.label: male, Sprague-Dawley, rat, in vivo; SD rats, single oral D7 4 mL/kg, plasma
- Method: Male Sprague–Dawley rats (∼250 g) purchased from Sino-British Sippr/BK Lab Animal, Ltd. (Shanghai, China) were housed in air-conditioned animal quarters with alternating 12 h light/dark cycles at a room temperature of 22°C±2°C and a relative humidity of 50%±10%. Commercial rat chow and water were given ad libitum. […] Standard curves, intra-batch accuracy, and precision for the quantification of the 15 compounds in the rat plasma samples were constructed similarly. […]
# label = T if AUC >= 200 ng·h/mL else F

Consider the following illustrative entries.
[
  {
    "compound.structure": "CC(C)=CCc1cc2c(cc1O)oc(=O)c1c3ccc(O)cc3oc21",
    "group": "F"
  },
  {
    "compound.structure": "COc1c2ccoc2cc2oc(=O)ccc12",
    "group": "F"
  },
  {
    "compound.structure": "COc1c2occc2cc2ccc(=O)oc12",
    "group": "T"
  },
  {
    "compound.structure": "O=c1ccc2ccc3occc3c2o1",
    "group": "T"
  }
]

Consider now this further compound.
Is it the case that O=c1ccc2cc3ccoc3cc2o1 has AUC reaching or exceeding 200 ng·h/mL?
T

====

- experiment.notes: in vivo
- Assay type: in vivo, Sprague–Dawley rats
- condition.label: SD rats, single oral D7 4 mL/kg, LC-MS/MS, sampling up to 24 h
measured.quantity: Detection in rat plasma after D7 administration

[
  {
    "compound": "COC[C@@]12CC[C@H](OC)[C@]34C(C([C@H](OC)[C@H]13)[C@]1(OC(C)=O)[C@H]3[C@@H](OC(=O)c5ccccc5)[C@](O)(C[C@H]34)[C@@H](OC)[C@@H]1O)N(C)C2 [hypaconitine]",
    "experimental.value": "not detected"
  },
  {
    "compound": "COCC12CN(C)C3C4C(OC)C1C3(C(OC)CC2O)C1CC2(O)C(OC)C(O)C4(OC(C)=O)C1C2OC(=O)c1ccccc1 (stereo not drawn) [mesaconitine]",
    "experimental.value": "not detected"
  }
]

====

- experiment.notes: in vivo
- Assay type: in vivo, Sprague–Dawley rats
- condition.label: male, Sprague-Dawley, rat, in vivo; SD rats, single oral D7 4 mL/kg; read-out: CL/F (converted)
measured.quantity: CL/F (mL/min/kg)
Answers are plain numbers, in mL/min/kg.

Worked examples, 3 molecules total:
[
  {
    "compound.structure": "O=c1ccc2cc3ccoc3cc2o1",
    "CL/F [mL/min/kg]": 1.39
  },
  {
    "compound.structure": "O=c1ccc2ccc3occc3c2o1",
    "CL/F [mL/min/kg]": 1.1
  },
  {
    "compound.structure": "CC(C)=CCc1cc2c(cc1O)oc(=O)c1c3ccc(O)cc3oc21",
    "CL/F [mL/min/kg]": 2.88
  }
]

State its CL/F: COc1c2ccoc2cc2oc(=O)ccc12
8.07
